The measurements presented in this section are drawn from patent US8481016B2.

# Tested on: potential-dependent cation channel of isolated olfactory cells
# experiment: Test for measuring potential-dependent cation channel activity (whole-cell recording, inward current on depolarization)
# Format: cell-based, Japanese fire belly newt (Cynops pyrrhogaster)
# setup-conditions: evaluation concentration 0.01%; depolarization -90 mV to -20 mV; newt olfactory cells
So I've got a bunch of compounds here, and I need their Inhibition ratio (%) (inward current suppression ratio) values.
Give bare numbers, in %.

compound	unit-symbol	readout-number
CC12CC3CC(C1)CC(C)(C3)C2	%	0
CCOC(=O)CC(=O)C12CC3CC(CC(C3)C1)C2 [Example 9, Ethyl-3-(1-adamantyl)-3-oxopropionate]	%	45.5
CC(=O)C12CC3CC(CC(C3)C1)C2	%	32
CC12CC3CC(C)(C1)CC(CO)(C3)C2	%	59.9
CC(=O)NC12CC3CC(CC(C3)C1)C2	%	40.6
CC(N)C12CC3CC(CC(C3)C1)C2.Cl (stereo not shown)	%	78.9

Q) Recorded Inhibition ratio (%) (inward current suppression ratio) of `NCC12CC3CC(CC(C3)C1)C2` , please.
A) 54.5
